These measurements were taken from patent US20110159022A1.

target: HLA-DR1 (DRB1*0101) (human); assay: competition ELISA, tracer biotin-HA 306-318
Assay endpoint: relative binding activity

Form field: reported relative binding activity of MQHRGFLLLTLLALL (synthetic 15-mer of the human midkine precursor; also called peptide 1-15) [MDK 1-15]
21 IC50 ratio to reference peptide

Form field: reported relative binding activity of RGFLLLTLLALLALT (synthetic 15-mer of the human midkine precursor; also called MDK2; peptide 4-18) [MDK 4-18]
21 IC50 ratio to reference peptide

Form field: reported relative binding activity of LLALTSAVAKKKDKV (synthetic 15-mer of the human midkine precursor; also called MDK4; peptide 14-28) [MDK 14-28]
34 IC50 ratio to reference peptide

Form field: reported relative binding activity of CNWKKEFGADCKYKF (also called MDK11) [MDK 74-88]
333 IC50 ratio to reference peptide
